Tested on: Escherichia coli
Assay: Checkerboard synergy (FICI) of antibiotics with SP-BIM
Settings: antibiotic in combination with SP-BIM 9
Criterion: MIC in combination, Antibiotic strictly under 20 µg/mL. Met: satisfied. Not met: not satisfied.

COMPOUND	ASSAY TARGET	CATEGORY LABEL
CC1=C(C(=O)O)N2C(=O)[C@@H](NC(=O)[C@H](N)c3ccccc3)[C@H]2SC1 [Cephalexin, cefalexin]	Escherichia coli	satisfied
CC[C@H]1OC(=O)[C@H](C)[C@@H](O[C@H]2C[C@@](C)(OC)[C@@H](O)[C@H](C)O2)[C@H](C)[C@@H](O[C@@H]2O[C@H](C)C[C@H](N(C)C)[C@H]2O)[C@](C)(O)C[C@@H](C)C(=O)[C@H](C)[C@@H](O)[C@]1(C)O [Erythromycin, erythromycin]	Escherichia coli	not satisfied
C[C@H]1c2cccc(O)c2C(=O)C2=C(O)[C@]3(O)C(=O)C(C(N)=O)=C(O)[C@@H](N(C)C)[C@@H]3[C@@H](O)[C@@H]21 [Doxycycline, doxycycline]	Escherichia coli	satisfied
CC1(C)S[C@@H]2[C@H](NC(=O)[C@H](N)c3ccccc3)C(=O)N2[C@H]1C(=O)O [Ampicillin, ampicillin]	Escherichia coli	satisfied
C[C@H]1[C@H](NC(=O)/C(=N\OC(C)(C)C(=O)O)c2csc(N)n2)C(=O)N1S(=O)(=O)O [Aztreonam, aztreonam]	Escherichia coli	not satisfied
COc1cc(Cc2cnc(N)nc2N)cc(OC)c1OC [Trimethoprim, trimethoprim]	Escherichia coli	satisfied
[H]/N=C(/N)N[C@H]1[C@H](O)[C@@H](O)[C@H](O[C@@H]2O[C@@H](C)[C@](O)(C=O)[C@H]2O[C@@H]2O[C@@H](CO)[C@H](O)[C@@H](O)[C@@H]2NC)[C@@H](N/C(N)=N\[H])[C@@H]1O [Streptomycin, streptomycin]	Escherichia coli	satisfied

* * *

Test system: Candida albicans
Assay: Checkerboard synergy (FICI) of antibiotics with SP-BIM
Design: unit not given beside the values
Conditions: MIC of the antibiotic in combination with SP-BIM 13
Here, each record is paired with measured MIC in combination: Antibiotic data.
QUANTITY KIND: MIC in combination: Antibiotic

STRUCTURE SMILES	QUANTITY KIND	REPORTED MEASUREMENT
[H]/N=C(/N)N[C@H]1[C@H](O)[C@@H](O)[C@H](O[C@@H]2O[C@@H](C)[C@](O)(C=O)[C@H]2O[C@@H]2O[C@@H](CO)[C@H](O)[C@@H](O)[C@@H]2NC)[C@@H](N/C(N)=N\[H])[C@@H]1O	MIC in combination: Antibiotic	16
O=C(O)c1cn(C2CC2)c2cc(N3CCNCC3)c(F)cc2c1=O	MIC in combination: Antibiotic	63
CC1=C(C(=O)O)N2C(=O)[C@@H](NC(=O)[C@H](N)c3ccccc3)[C@H]2SC1	MIC in combination: Antibiotic	63
COc1cc(Cc2cnc(N)nc2N)cc(OC)c1OC	MIC in combination: Antibiotic	250
C[C@H]1[C@H](NC(=O)/C(=N\OC(C)(C)C(=O)O)c2csc(N)n2)C(=O)N1S(=O)(=O)O	MIC in combination: Antibiotic	250
CC[C@H]1OC(=O)[C@H](C)[C@@H](O[C@H]2C[C@@](C)(OC)[C@@H](O)[C@H](C)O2)[C@H](C)[C@@H](O[C@@H]2O[C@H](C)C[C@H](N(C)C)[C@H]2O)[C@](C)(O)C[C@@H](C)C(=O)[C@H](C)[C@@H](O)[C@]1(C)O	MIC in combination: Antibiotic	1
C[C@H]1c2cccc(O)c2C(=O)C2=C(O)[C@]3(O)C(=O)C(C(N)=O)=C(O)[C@@H](N(C)C)[C@@H]3[C@@H](O)[C@@H]21	MIC in combination: Antibiotic	2
CC1(C)S[C@@H]2[C@H](NC(=O)[C@H](N)c3ccccc3)C(=O)N2[C@H]1C(=O)O	MIC in combination: Antibiotic	0.5

The values you see were collected from patent US12285407B2.
